# assayed-target: SIK3 (Homo sapiens)
# Construct: purchased SignalChem S12-11G-100
# Sequence (Q9Y2K2 whole entry): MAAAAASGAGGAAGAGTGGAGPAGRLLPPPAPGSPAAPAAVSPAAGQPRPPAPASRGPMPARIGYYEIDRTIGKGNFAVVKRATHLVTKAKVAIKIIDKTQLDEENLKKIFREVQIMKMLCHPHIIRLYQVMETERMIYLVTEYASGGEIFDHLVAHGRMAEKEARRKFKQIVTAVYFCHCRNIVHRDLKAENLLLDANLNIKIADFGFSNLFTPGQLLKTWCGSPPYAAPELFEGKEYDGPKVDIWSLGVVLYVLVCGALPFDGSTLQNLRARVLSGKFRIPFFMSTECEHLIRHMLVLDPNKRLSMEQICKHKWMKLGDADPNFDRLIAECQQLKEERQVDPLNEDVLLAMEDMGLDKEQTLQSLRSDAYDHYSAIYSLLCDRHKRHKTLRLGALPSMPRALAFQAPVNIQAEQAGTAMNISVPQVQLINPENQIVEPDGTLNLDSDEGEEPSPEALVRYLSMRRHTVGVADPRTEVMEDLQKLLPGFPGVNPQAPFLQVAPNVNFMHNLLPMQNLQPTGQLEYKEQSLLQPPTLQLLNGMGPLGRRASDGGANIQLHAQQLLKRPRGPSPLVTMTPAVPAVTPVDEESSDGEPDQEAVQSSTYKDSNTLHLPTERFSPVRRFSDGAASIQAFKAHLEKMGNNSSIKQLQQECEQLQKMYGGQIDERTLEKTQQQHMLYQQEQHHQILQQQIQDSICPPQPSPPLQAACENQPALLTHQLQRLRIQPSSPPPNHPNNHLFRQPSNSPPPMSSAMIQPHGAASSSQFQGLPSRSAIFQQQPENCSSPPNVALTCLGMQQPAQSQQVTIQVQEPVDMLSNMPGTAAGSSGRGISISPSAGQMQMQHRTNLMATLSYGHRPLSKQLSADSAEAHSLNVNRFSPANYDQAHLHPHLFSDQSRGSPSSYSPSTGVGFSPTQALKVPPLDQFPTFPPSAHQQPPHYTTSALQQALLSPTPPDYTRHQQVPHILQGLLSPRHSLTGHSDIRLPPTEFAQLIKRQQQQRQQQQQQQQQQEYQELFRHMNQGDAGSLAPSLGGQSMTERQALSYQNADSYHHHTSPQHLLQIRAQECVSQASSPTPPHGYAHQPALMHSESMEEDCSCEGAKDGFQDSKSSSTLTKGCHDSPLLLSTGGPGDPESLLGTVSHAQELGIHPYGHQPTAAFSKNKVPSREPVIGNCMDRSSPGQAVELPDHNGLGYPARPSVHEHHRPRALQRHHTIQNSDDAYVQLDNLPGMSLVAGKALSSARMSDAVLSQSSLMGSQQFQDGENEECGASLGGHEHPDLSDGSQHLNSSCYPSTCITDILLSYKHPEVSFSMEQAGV
# method-summary: biochemical
# condition-set: ADP-Glo SIK kinase assay
pIC50: −log10 of the molar value.
property-name: pIC50

In the examples that follow, each entry is paired with its recorded pIC50.
## Task Consider the molecule shown here: `CCOC(=O)C(C)(C)n1cc(-c2ccn3c(-c4cc(OC)c(C(=O)NCC(F)(F)F)c(OC)c4)cnc3c2)cn1` What is its recorded pIC50?
## Result 8.00 to 11.00

## Task Need pIC50, item `COc1cc(-c2cnc3cc(-c4cnn(C(C)(C)C(=O)O)c4)ccn23)cc(OC)c1C(=O)NCC(F)(F)F`
## Result 8.00 to 11.00

## Task What does the data say about its pIC50? Entry: `COc1cc(-c2cnc3cc(-c4cnn(C)c4)ccn23)cc2c1C(=O)N(CC(F)(F)F)C2`
## Result 8.00 to 11.00

Then there is this molecule:
## Task Given the molecule `COc1cc(-c2cnc3cc(-c4cnccc4C#N)ccn23)cc(OC)c1C(=O)NCC(F)(F)F` , what is its reported pIC50?
## Result 7.00 to 8.00

---

# assayed-target: SIK2 (Homo sapiens, UniProt Q9H0K1)
# Construct: purchased ThermoFisher Scientific PV4792
# Sequence (Q9H0K1 whole entry): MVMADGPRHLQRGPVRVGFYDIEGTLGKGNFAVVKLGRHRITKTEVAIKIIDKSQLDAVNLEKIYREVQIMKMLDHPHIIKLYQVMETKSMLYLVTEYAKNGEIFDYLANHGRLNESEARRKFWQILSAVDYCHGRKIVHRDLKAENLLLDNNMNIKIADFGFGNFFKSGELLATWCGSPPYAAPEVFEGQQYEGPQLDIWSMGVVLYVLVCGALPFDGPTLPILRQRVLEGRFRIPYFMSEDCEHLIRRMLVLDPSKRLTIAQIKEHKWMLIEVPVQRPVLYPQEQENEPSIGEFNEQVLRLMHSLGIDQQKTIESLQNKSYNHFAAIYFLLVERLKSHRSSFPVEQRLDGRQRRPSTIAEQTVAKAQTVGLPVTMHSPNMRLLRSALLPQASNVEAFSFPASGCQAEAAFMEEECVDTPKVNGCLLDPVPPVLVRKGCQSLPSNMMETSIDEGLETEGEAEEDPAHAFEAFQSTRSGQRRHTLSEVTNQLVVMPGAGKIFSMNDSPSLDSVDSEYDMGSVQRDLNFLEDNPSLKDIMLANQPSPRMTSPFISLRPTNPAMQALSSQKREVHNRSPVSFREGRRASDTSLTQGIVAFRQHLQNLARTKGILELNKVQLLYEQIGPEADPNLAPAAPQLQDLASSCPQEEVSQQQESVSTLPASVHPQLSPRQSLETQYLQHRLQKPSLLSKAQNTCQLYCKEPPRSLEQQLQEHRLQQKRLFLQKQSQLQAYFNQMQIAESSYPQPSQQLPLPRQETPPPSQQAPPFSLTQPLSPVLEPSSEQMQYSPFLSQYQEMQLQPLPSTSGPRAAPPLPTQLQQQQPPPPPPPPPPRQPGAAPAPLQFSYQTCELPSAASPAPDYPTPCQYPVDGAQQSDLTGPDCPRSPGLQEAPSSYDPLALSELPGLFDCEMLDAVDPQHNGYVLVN
# method-summary: biochemical
# condition-set: 33P radioactive SIK kinase assay, AMARA peptide, 10 μM ATP
pIC50: −log10 of the molar value.
The entries below are paired with their reported pIC50.

## Task Which pIC50 value is on record for `COc1cc(-n2cnc3cc(-c4cnn(C)c4)ccc32)cc(OC)c1C(=O)N1CC2(C1)CS(=O)(=O)C2` ?
## Result 6.30 to 7.00

## Task Return reported pIC50; argument: `COc1cc(-c2cnc3cc(-c4ccnnc4)ccn23)cc(OC)c1C(=O)NCC(F)(F)F`
## Result 7.00 to 8.00

## Task Which pIC50 value is on record for `COc1cc(-n2cnc3cc(-c4ccc(N)nc4)ccc32)cc(OC)c1C(=O)NCC(F)(F)F` ?
## Result 7.00 to 8.00

Others:
## Task Can you look up the measured pIC50 of `CCOC(=O)Cn1cc(-c2ccn3c(-c4cc(OC)c(C(=O)NCC(F)(F)F)c(OC)c4)cnc3c2)cn1` for me?
## Result 8.00 to 11.00

## Task Give the measured pIC50 of `CCn1cc(-c2cnc3c(-c4cc(OC)c(C(=O)NCC(F)F)c(OC)c4)cnn3c2)cn1` .
## Result 8.00 to 11.00

## Task Given the molecule `COc1cc(-c2cnc3cc(-c4ccc(C#N)nc4)ccn23)cc(OC)c1C(=O)NCC(F)(F)F` , what is its reported pIC50?
## Result 7.00 to 8.00

## Task What does the record list as pIC50 for `COC(=O)C1CN(C(=O)c2c(OC)cc(-c3cnc4cc(-c5cnn(C)c5)ccn34)cc2OC)C1` ?
## Result 7.00 to 8.00

## Task Look up pIC50: `CCNC(=O)c1c(OC)cc(-c2cnc3cc(-c4cnn(C(F)F)c4)ccn23)cc1OC(F)F`
## Result 8.00 to 11.00

---

# Tested on: LPS-induced TNFα secretion in monocyte-derived macrophages (MdM)
# method-summary: MdM assay: LPS-triggered TNFα (ELISA)
# Type: cell-based, human
# condition-set: Homo sapiens, Macrophage, LPS-triggered TNFα inhibition
# Protocol: This assay evaluates illustrative compounds of the invention for their inhibition of LPS-induced TNFα and LPS triggered IL-10 secretion in monocyte-derived macrophages. PBMCs are isolated from human blood samples (buffycoats). The buffy coat is aseptically transferred into a 50 mL Falcon tube, and diluted 1/2 in PBS. […]
pEC50: −log10 of the molar value.
property-name: pEC50

Some entries whose results are on file:
## Task Would you kindly share the measured pEC50 for `COc1cc(-c2cnc3cc(-c4cnn(C)c4)ccn23)cc(F)c1C(=O)NC1CC1` ?
## Result 7.00 to 10.00

## Task Request the reported pEC50 associated with `CCOC(=O)C(C)(C)n1cc(-c2ccn3c(-c4cc(OC)c(C(=O)NCC(F)(F)F)c(OC)c4)cnc3c2)cn1`
## Result 7.00 to 10.00

## Task Any idea what pEC50 was measured for `COc1cc(-c2cnc3cc(-c4cn[nH]c4)ccn23)cc(OC)c1C(=O)N[C@H](C)C(F)(F)F` ?
## Result 6.00 to 7.00

## Task Item `COc1cc(-c2cnn3cc(-c4cnn(C)c4)cnc23)cc(OC)c1C(=O)NCC(F)(F)F` has what recorded pEC50?
## Result 6.00 to 7.00

## Task Sample `CCn1cc(-c2cnc3c(-c4cc(OC)c(C(=O)NCC(F)(F)F)c(OC)c4)cnn3c2)cn1` — what was its pEC50?
## Result 6.00 to 7.00

## Task Return reported pEC50; argument: `COc1cc(-c2cnc3cc(-c4cnn(C)c4)ccn23)cc(OCCO)c1C(=O)NC1CC1`
## Result 6.00 to 7.00

## Task Reported pEC50, compound `COc1cc(-c2cnc3cc(-c4cnn(CC(=O)O)c4)ccn23)cc(OC)c1C(=O)NCC(F)(F)F` : ____
## Result < 5.30

## Task Given the entry `COc1cc(-n2cnc3cc(-c4cnn(C)c4)ccc32)cc(OC)c1C(=O)N[C@@H]1C[C@@H]1F` , report its measured pEC50.
## Result 7.00 to 10.00

## Task Need pEC50, item `CCNC(=O)c1c(OC)cc(-c2cnc3cc(-c4cnn(C)c4)ccn23)cc1OC(F)F`
## Result 7.00 to 10.00

## Task I have this compound here, `COc1cc(-n2cnc3cc(-c4cnn(C)c4)ccc32)cc(OC)c1C(=O)NC1CC(F)(F)C1` , and I need its recorded pEC50.
## Result 6.00 to 7.00

# ---- query compound ----
## Task // lookup pEC50 for `COc1cc(-n2cnc3cc(-c4cn[nH]c4)ccc32)cc(OC(F)F)c1C(=O)NC1CC1`
## Result 7.00 to 10.00

---

# assayed-target: SIK1 (Homo sapiens)
# Construct: purchased Carna Biosciences 02-131
# Sequence (P57059 whole entry): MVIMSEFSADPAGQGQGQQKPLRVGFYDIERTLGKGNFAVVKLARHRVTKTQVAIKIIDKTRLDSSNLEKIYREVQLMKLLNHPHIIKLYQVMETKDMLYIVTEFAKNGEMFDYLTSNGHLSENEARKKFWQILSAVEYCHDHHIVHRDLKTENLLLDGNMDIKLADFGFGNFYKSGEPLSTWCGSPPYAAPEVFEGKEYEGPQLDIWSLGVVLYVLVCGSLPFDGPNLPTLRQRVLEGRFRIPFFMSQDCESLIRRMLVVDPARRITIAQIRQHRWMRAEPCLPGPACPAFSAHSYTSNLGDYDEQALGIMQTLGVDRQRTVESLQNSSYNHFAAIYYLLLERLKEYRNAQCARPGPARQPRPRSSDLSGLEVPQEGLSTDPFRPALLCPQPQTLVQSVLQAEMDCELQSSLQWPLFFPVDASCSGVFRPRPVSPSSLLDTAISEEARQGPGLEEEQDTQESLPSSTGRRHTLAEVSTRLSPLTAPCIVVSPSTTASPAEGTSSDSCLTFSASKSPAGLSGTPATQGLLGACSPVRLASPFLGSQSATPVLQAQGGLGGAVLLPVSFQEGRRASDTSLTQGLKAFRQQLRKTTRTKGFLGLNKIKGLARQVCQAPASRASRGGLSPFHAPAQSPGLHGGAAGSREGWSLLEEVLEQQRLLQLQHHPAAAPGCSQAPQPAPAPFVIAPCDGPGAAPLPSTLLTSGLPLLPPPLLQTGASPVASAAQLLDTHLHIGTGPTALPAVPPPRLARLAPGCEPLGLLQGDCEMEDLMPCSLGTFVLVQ
# method-summary: biochemical
# condition-set: 33P radioactive SIK kinase assay, AMARA peptide, 10 μM ATP; read-out: SIK1 IC50
property-name: IC50

## Task Which value of IC50 has been reported for `CCNC(=O)c1c(OC)cc(-c2cnc3cc(-c4cnn(C5CCN(C)CC5)c4)ccn23)cc1OC(F)F` in the records?
## Result 0.01 to 10 nM

***
## Task Which measured IC50 value corresponds to `COc1cc(-n2cnc3cc(-c4ccnnc4)ccc32)cc(OC)c1C(=O)NCC(F)(F)F` ?
## Result 100 to 500 nM

## Task Item under review: `CCNC(=O)c1c(OC)cc(-c2cnc3cc(-c4cnn(C5CCNCC5)c4)ccn23)cc1OC(F)F` . Reported IC50?
## Result 0.01 to 10 nM

## Task Sample `COc1cc(-n2cnc3cc(-c4cnn(C)c4)ccc32)cc(OC)c1C(=O)N[C@H](C)C(F)(F)F` — what was its IC50?
## Result 10 to 100 nM

## Task Using the record for `COc1cc(-n2cnc3cc(-n4cnc(C)n4)ccc32)cc(OC)c1C(=O)NCC(F)(F)F` , report its IC50.
## Result > 500 nM

## Task What does the data say about its IC50? Entry: `COc1cc(-c2cnc3cc(-c4ccc(C#N)nc4)ccn23)cc(OC)c1C(=O)NCC(F)(F)F`
## Result 100 to 500 nM

## Task # input compound: `COc1cc(-c2cnc3cc(-c4cn[nH]c4)ccn23)cc(OC)c1C(=O)N[C@H](C)C(F)(F)F` ; wanted: its IC50
## Result 0.01 to 10 nM

## Task For the compound shown here, `COc1cc(-c2cnc3cc(-c4cn(C)cn4)ccn23)cc(OC)c1C(=O)N[C@@H](C)C(F)(F)F` , give the reported IC50.
## Result 100 to 500 nM

## Task IC50 lookup needed for `COc1cc(-n2cnc3cc(-c4cnn(C)c4)ccc32)cc(OC)c1C(=O)NC[C@@H]1COCCO1` , thanks.
## Result 100 to 500 nM

---

# System: LPS-induced TNFα secretion in monocyte-derived macrophages (MdM)
# method-summary: MdM assay: LPS-triggered TNFα (ELISA)
# Format: cell-based, human
# condition-set: Homo sapiens, Macrophage, LPS-triggered TNFα inhibition
pEC50: −log10 of the molar value.
property-name: pEC50

## Task Which pEC50 reading was recorded for the compound `COc1cc(-c2cnc3cc(-c4cnn(C)c4)ccn23)cc(OC)c1C(=O)NCC#N` ?
## Result 7.00 to 10.00

## Task # get_value(readout='pEC50', item= CCn1cc(-c2ccc3c(c2)ncn3-c2cc(OC)c(C(=O)NC3C[C@H]3C)c(OC)c2)cn1 (stereo partly shown) )
## Result < 5.30

## Task What pEC50 value was documented for this compound, `COc1cc(-c2cnc3cc(-c4cnn(C)c4)ccn23)cc(OC)c1C(=O)NCC(C)C` ?
## Result 6.00 to 7.00

Further cases:
## Task Which pEC50 is listed for `COc1cc(-c2cnc3cc(-c4ccc(C5CC5)nn4)ccn23)cc(OC(F)F)c1C(=O)NC1CC1` ?
## Result 7.00 to 10.00

## Task Looking for the measured pEC50 of `COc1cc(-n2cnc3cc(-c4cnn(CCN5CCOCC5)c4)ccc32)cc(OC(F)F)c1C(=O)NC1CC1` , can you help?
## Result 7.00 to 10.00

## Task Please give the measured pEC50 for this compound: `COc1cc(-n2cnc3cc(-c4ccc(N5CCOCC5)nc4)ccc32)cc(OC)c1C(=O)NCC(F)(F)F`
## Result 6.00 to 7.00

## Task Requested read-out: pEC50. Entry: `COc1cc(-c2cnc3cc(-c4cnn(CCCC(=O)O)c4)ccn23)cc(OC)c1C(=O)NCC(F)(F)F`
## Result 5.30 to 6.00
